Target: T1, human BCMA (B cell maturation antigen) (human, UniProt Q02223 1-184)
T1 construct: whole, on cells; also called hBCMA; TNFRSF17
T1 sequence (looked up): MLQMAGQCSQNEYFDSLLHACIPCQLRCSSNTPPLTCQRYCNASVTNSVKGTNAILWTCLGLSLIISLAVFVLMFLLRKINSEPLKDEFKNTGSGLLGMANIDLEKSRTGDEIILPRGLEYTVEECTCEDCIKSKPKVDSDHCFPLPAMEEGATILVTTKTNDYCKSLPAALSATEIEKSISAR
Assay: flow cytometry, FN3 domain titration on HEK293F cells transiently expressing human BCMA, anti-His Alexa-488 detection, PRISM one-site specific binding fit
Parameters: unit not given here
Experimental: 50 uL secondary antibody in FACS buffer was added to the wells. Anti-His mAb was added at a 1/100 dilution to all of the wells except for the FACS buffer only negative control wells. The plates were incubated on ice for 1 hr. […] Cells were resuspended in 30 uL Intellicyt buffer (FACS buffer, 0.1% Pluronic Acid, 1 mM EDTA, SytoX Red Live/Dead Stain at a 1:1000 dilution) and mixed gently by vortexing the plates. The plates were kept on ice and read on an Intellicyt plate reader. […]
readout_label: Bmax
Form: value (number only, do not type unit).

*Q* Indicate its recorded Bmax; the binder in question is D08 BCMA-specific FN3 domain (designed binder, Detected with an anti-His mAb, so the protein tested carried a His tag) MLPAPKNLVVSHVTEDSARLSWTAPDAAFDSFIIVYRENIETGEAIVLTVPGSERSYDLTDLKPGTEYYVQIAGVKGGNISFPLSAIFTT
*A* 61200

*Q* Indicate its recorded Bmax; the binder in question is G10 BCMA-specific FN3 domain (designed binder, Detected with an anti-His mAb, so the protein tested carried a His tag) MLPAPKNLVVSRVTEDSARLSWIAPDAAFDSFIIVYRENIETGEAIVLTVPGSERSYDLTGLKPGTEYYVQIAGVKGGNISFPLSAIFTT
*A* 72600

*Q* Indicate its recorded Bmax; the binder in question is A12 BCMA-specific FN3 domain (designed binder, Detected with an anti-His mAb, so the protein tested carried a His tag) MLPAPKNLVVSRITEDSARLSWTAPDAAFDSFTIKYIERATWGEAIWLNVPGSERSYDLTGLKPGTEYVVLINGVKGGPESWPLIAHFTT
*A* 51400

*Q* Indicate its recorded Bmax; the binder in question is B03 BCMA-specific FN3 domain (designed binder, Detected with an anti-His mAb, so the protein tested carried a His tag) MLPAPKNLVVSRITEDSARLSWTAPDAAFDSFPIRYIETLIWGEAIWLDVPGSERSYDLTGLKPGTEYTVVIDGVKGGGRSQPLVATFTT
*A* 60900

Origin of values: patent US20220031822A1
